Test system: TALE test backbone, repeat 5 RVD KT (synthetic (Xanthomonas TALE))
Settings: ELISA
Listed sequences paired with reported binding signal (normalized ELISA)
I only need the number, thanks.

Some solved cases for reference:
TTGACCATCCT (double strand) [CCA target] ... 0.81
TTGACAATCCT (double strand) [CAA target] ... 1
TTGACGATCCT (double strand) [CGA target] ... 0.83

# evaluate next
Input: Give the measured binding signal (normalized ELISA) for TTGACTATCCT (double strand) [CTA target]
Output: 0.67

====

Tested on: TALE test backbone, repeat 5 RVD QA (synthetic (Xanthomonas TALE))
Conditions: ELISA
readout.label: binding signal (normalized ELISA)
I only need the number, thanks.

Some solved cases for reference:
TTGACTATCCT (double strand) [CTA target] ... 1.24
TTGACCATCCT (double strand) [CCA target] ... 0.19
TTGACAATCCT (double strand) [CAA target] ... 0.2

# evaluate next
Input: Give the measured binding signal (normalized ELISA) for TTGACGATCCT (double strand) [CGA target]
Output: 0.03

====

System: TALE test backbone, repeat 5 RVD YG (synthetic (Xanthomonas TALE))
Conditions: ELISA
readout.label: binding signal (normalized ELISA)
I only need the number, thanks.

Some solved cases for reference:
TTGACCATCCT (double strand) [CCA target] ... 0.02
TTGACTATCCT (double strand) [CTA target] ... 0.79
TTGACGATCCT (double strand) [CGA target] ... 0.01

# evaluate next
Input: Give the measured binding signal (normalized ELISA) for TTGACAATCCT (double strand) [CAA target]
Output: 0.12

====

Listed sequences paired with reported binding signal (normalized ELISA)
Test system: TALE test backbone, repeat 5 RVD RG (synthetic (Xanthomonas TALE))
Conditions: ELISA
I only need the number, thanks.

Some solved cases for reference:
TTGACAATCCT (double strand) [CAA target] ... 0.32
TTGACCATCCT (double strand) [CCA target] ... 0.26
TTGACGATCCT (double strand) [CGA target] ... 0.12

Input: Give the measured binding signal (normalized ELISA) for TTGACTATCCT (double strand) [CTA target]
Output: 0.87

====

System: TALE test backbone, repeat 5 RVD DK (synthetic (Xanthomonas TALE))
Conditions: ELISA
readout.label: binding signal (normalized ELISA)

TTGACCATCCT (double strand) [CCA target] ... 0
TTGACTATCCT (double strand) [CTA target] ... 0
TTGACAATCCT (double strand) [CAA target] ... 0

# evaluate next
Input: Give the measured binding signal (normalized ELISA) for TTGACGATCCT (double strand) [CGA target]
Output: 0.15

====

Test system: TALE test backbone, repeat 5 RVD QG (synthetic (Xanthomonas TALE))
Settings: ELISA
readout.label: binding signal (normalized ELISA)

Some solved cases for reference:
TTGACCATCCT (double strand) [CCA target] ... 0.11
TTGACGATCCT (double strand) [CGA target] ... 0.05
TTGACAATCCT (double strand) [CAA target] ... 0.21

# evaluate next
Input: Output reported binding signal (normalized ELISA) of the sequence TTGACTATCCT (double strand) [CTA target] on TALE test backbone, repeat 5 RVD QG (synthetic (Xanthomonas TALE)).
Output: 1.09
